System: TYKNU
Test: fractional viability relative to vehicle; higher = less growth inhibition
Settings: 2uM; 72 h; genotype: OPA1 knockout (sgOPA1 #2)
In all, about 2,000 compounds were measured (“fractional viability relative to vehicle”: median about 0.92, lowest 2% from about 0.11 on). The sample as a whole holds a higher share of the lowest values than the screen did.
// reported fractional viability per item

{"compound": "COc1ccc(C[C@H](NC(=O)[C@H](C)NC(=O)CN2CCOCC2)C(=O)N[C@@H](Cc2ccccc2)C(=O)[C@@]2(C)CO2)cc1", "fractional viability": 0.149}
{"compound": "C=CCNC1=C2C[C@@H](C)C[C@H](OC)[C@H](O)[C@@H](C)/C=C(\\C)[C@H](OC(N)=O)[C@@H](OC)/C=C\\C=C(/C)C(=O)NC(=CC1=O)C2=O [17-AAG (Tanespimycin)]", "fractional viability": 0.652}
{"compound": "COC[C@H](NC(=O)c1cnc(C)s1)C(=O)N[C@@H](COC)C(=O)N[C@@H](Cc1ccccc1)C(=O)[C@@]1(C)CO1 [Oprozomib (ONX 0912)]", "fractional viability": 0.153}

---

Tested on: TYKNU
Test: fractional viability relative to vehicle; TYKNU is a high-grade serous ovarian cancer line; higher = less growth inhibition
Conditions: 2uM; 72 h; genotype: OPA1 knockout (sgOPA1 #2)
Counter-ions that a name gives are not always drawn. Whole data set: some 2,000 compounds, median “fractional viability relative to vehicle” near 0.92, cut for the lowest 2% near 0.11. What follows is part of a selection rich in the lowest values, with near analogues and random picks from the rest.
reported property: fractional viability

{"molecule": "C[C@H](Nc1ncnc2[nH]cnc12)c1cc2ccc(F)cc2nc1-c1ccccn1", "reported property": "fractional viability", "recorded number": 0.879}
{"molecule": "Cc1nc(-c2cccnc2)sc1C(=O)Nc1ccccc1-c1cn2c(CN3CCOCC3)csc2n1", "reported property": "fractional viability", "recorded number": 0.748}
{"molecule": "CNCc1ccc(-c2cc(-c3nc(-c4ccc(S(=O)(=O)C(C)C)cc4)cnc3N)on2)cc1", "reported property": "fractional viability", "recorded number": 0.792}
{"molecule": "CC[C@@]1(O)C(=O)OCc2c1cc1n(c2=O)Cc2cc3cc(O)ccc3nc2-1 [(S)-10-Hydroxycamptothecin]", "reported property": "fractional viability", "recorded number": 0.179}
{"molecule": "OCCn1cc(-c2cnc3nnn(Cc4ccc5ncccc5c4)c3n2)cn1", "reported property": "fractional viability", "recorded number": 1.09}
{"molecule": "COc1ccc([C@H]2CNC(=O)C2)cc1OC1CCCC1 [S- (+)-Rolipram]", "reported property": "fractional viability", "recorded number": 1.2}
{"molecule": "Cc1cc(CS(=O)(=O)c2ccccc2)cc(OCc2ccc(CN3CCC[C@@H]3CO)cc2)c1", "reported property": "fractional viability", "recorded number": 0.843}
{"molecule": "Cc1cccc(-c2[nH]c(C(C)(C)C)nc2-c2ccc3nccnc3c2)n1", "reported property": "fractional viability", "recorded number": 1.28}
{"molecule": "CCOc1cc(C(C)(C)C)ccc1C1=N[C@@](C)(c2ccc(Cl)cc2)[C@@](C)(c2ccc(Cl)cc2)N1C(=O)N1CCN(CCCS(C)(=O)=O)CC1", "reported property": "fractional viability", "recorded number": 0.49}
{"molecule": "Cc1cc(/N=N/c2ccc(S(=O)(=O)Nc3ccccn3)cc2)c(N)cc1O", "reported property": "fractional viability", "recorded number": 0.89}
{"molecule": "Cn1cc(-c2cnn3c(N)c(Br)c([C@@H]4CCCNC4)nc23)cn1", "reported property": "fractional viability", "recorded number": 0.571}
{"molecule": "C=CC(=O)Nc1ccc2ncnc(Nc3cccc(Br)c3)c2c1", "reported property": "fractional viability", "recorded number": 0.982}
{"molecule": "O=C1[C@H](Cc2ccc(O)cc2)N2C(=O)CCN(C(=O)NCc3ccccc3)[C@H]2CN1Cc1cccc2ccccc12", "reported property": "fractional viability", "recorded number": 0.962}
{"molecule": "CCCCCCCc1ccc(CCc2cccc(O)c2C(=O)O)cc1", "reported property": "fractional viability", "recorded number": 0.96}
{"molecule": "CCS(=O)(=O)Nc1ccc2c(c1)/C(=C(/Nc1ccc(CN3CCCCC3)cc1)c1ccccc1)C(=O)N2", "reported property": "fractional viability", "recorded number": 0.544}
{"molecule": "Nc1cccc(S(=O)(=O)N2CCCN(S(=O)(=O)c3ccc4c(c3)OCCO4)CC2)c1", "reported property": "fractional viability", "recorded number": 0.783}
{"molecule": "Cc1cc(Nc2ccc(NC(=O)c3ccc(Nc4ccnc5ccccc45)cc3)cc2)nc(N)n1", "reported property": "fractional viability", "recorded number": 0.043}
{"molecule": "CC(C)(C)C(=O)Nc1ccc2c(c1)C(=O)C(=O)c1ccccc1-2", "reported property": "fractional viability", "recorded number": 0.181}
{"molecule": "NC(=O)c1cccc2[nH]c(-c3ccc(C4CCCN4)cc3F)nc12 (stereo unspecified)", "reported property": "fractional viability", "recorded number": 0.735}
{"molecule": "CC[C@H](CO)Nc1nc(NCc2ccccc2)c2ncn(C(C)C)c2n1 [Roscovitine (Seliciclib,CYC202)]", "reported property": "fractional viability", "recorded number": 1.14}
{"molecule": "Clc1ccc(C(Cn2ccnc2)OCc2ccc(Sc3ccccc3)cc2)c(Cl)c1 (stereo unspecified) [Fenticonazole Nitrate]", "reported property": "fractional viability", "recorded number": 0.933}
{"molecule": "CCn1c(=O)c(-c2ccc(-c3cncs3)cc2Cl)cc2cnc(Nc3ccc(N4CCN(C)CC4)cc3)nc21", "reported property": "fractional viability", "recorded number": 0.914}
{"molecule": "CNc1cc(-c2cccc(Cl)c2Cl)nc(N)n1", "reported property": "fractional viability", "recorded number": 0.476}
{"molecule": "O=C(NNc1nc2cc(F)ccc2n2cccc12)c1cnccn1", "reported property": "fractional viability", "recorded number": 0.576}
{"molecule": "c1nc2c(NC3CCCCC3)nc(Nc3ccc(N4CCOCC4)cc3)nc2[nH]1", "reported property": "fractional viability", "recorded number": 0.571}
{"molecule": "CCCCC(F)(F)[C@@]1(O)CC[C@H]2[C@@H](CC(=O)[C@@H]2CCCCCCC(=O)O)O1", "reported property": "fractional viability", "recorded number": 0.935}
{"molecule": "C=CC[N+]1([C@H]2C[C@H]3[C@@H]4CC[C@H]5C[C@H](O)[C@@H](N6CCOCC6)C[C@]5(C)[C@H]4CC[C@]3(C)[C@H]2OC(C)=O)CCCC1 [Rocuronium Bromide]", "reported property": "fractional viability", "recorded number": 1.16}
{"molecule": "CN1CCC(Nc2nc(Nc3ccc(Oc4ccccc4)cc3)c3c(=O)[nH]cc(Br)c3n2)CC1", "reported property": "fractional viability", "recorded number": 0.289}
{"molecule": "O=C(O)c1cc(=O)c2ccccc2o1", "reported property": "fractional viability", "recorded number": 0.872}
{"molecule": "COC(=O)c1ccc2c(c1)NC(=O)/C2=C(\\Nc1ccc(N(C)C(=O)CN2CCN(C)CC2)cc1)c1ccccc1", "reported property": "fractional viability", "recorded number": 1.32}
{"molecule": "O=C1c2ccccc2C(=O)c2c1ccc(O)c2O", "reported property": "fractional viability", "recorded number": 1.19}
{"molecule": "O=C(O)CCCCC(CCSCc1ccccc1)SCc1ccccc1 (stereo unspecified)", "reported property": "fractional viability", "recorded number": 1.23}
{"molecule": "CNC1CCC(N(Cc2cccc(-c3ccncc3)c2)C(=O)c2sc3ccccc3c2Cl)CC1 (stereo unspecified) [Smoothened Agonist (SAG) HCl]", "reported property": "fractional viability", "recorded number": 0.918}
{"molecule": "Cc1c(C(=O)NN2CCCCC2)nn(-c2ccc(Cl)cc2Cl)c1-c1ccc(I)cc1", "reported property": "fractional viability", "recorded number": 0.982}
{"molecule": "CC(=O)Nc1ccc(C(=O)Nc2ccccc2N)cc1", "reported property": "fractional viability", "recorded number": 0.755}
{"molecule": "Cc1cc([N+](=O)[O-])ccc1NS(=O)(=O)c1cc(Cl)ccc1Cl", "reported property": "fractional viability", "recorded number": 0.656}
